- assay.protocol: First PK study: single oral dose, two formulations
- Assay type: in vivo, female Swiss Albino mice
- test.settings: female, Swiss Albino, mouse, plasma, po, 7.5 mg/kg, single oral 7.5 mg/kg, Formulation 1, female mice, mean (SD)
property.measured: Cmax (ng/mL)
One number for each entry, in ng/mL.

*Q* Would you mind telling me what Cmax value was observed for COc1cc(N2CCNCC2)ccc1Nc1ncc2c(n1)-n1ccc(C(=O)Nc3c(C)cccc3C)c1CC2 [compound of formula (I)] ?
*A* 164

====

- assay.protocol: First PK study: single oral dose, two formulations
- Assay type: in vivo, female Swiss Albino mice
- test.settings: female, Swiss Albino, mouse, plasma, po, 7.5 mg/kg, single oral 7.5 mg/kg, Formulation 2, female mice, AUC0-24 h
property.measured: AUC(0-t) (ng·h/mL)
Numbers only, in ng·h/mL.

*Q* Would you mind telling me what AUC(0-t) value was observed for COc1cc(N2CCNCC2)ccc1Nc1ncc2c(n1)-n1ccc(C(=O)Nc3c(C)cccc3C)c1CC2 ?
*A* 1880

====

- assay.protocol: First PK study: single oral dose, two formulations
- Type: in vivo, female Swiss Albino mice
- test.settings: female, Swiss Albino, mouse, plasma, po, 5 mg/kg, single oral 5 mg/kg, Formulation 2, female mice, mean (SD)
property.measured: Cmax (ng/mL)
One number for each entry, in ng/mL.

*Q* Would you mind telling me what Cmax value was observed for COc1cc(N2CCNCC2)ccc1Nc1ncc2c(n1)-n1ccc(C(=O)Nc3c(C)cccc3C)c1CC2 ?
*A* 103

====

- assay.protocol: First PK study: single oral dose, two formulations
- Type: in vivo, female Swiss Albino mice
- test.settings: female, Swiss Albino, mouse, plasma, po, 5 mg/kg, single oral 5 mg/kg, Formulation 1, female mice, mean (SD)
property.measured: Cmax
Number plus unit, in that order.

*Q* Would you mind telling me what Cmax value was observed for COc1cc(N2CCNCC2)ccc1Nc1ncc2c(n1)-n1ccc(C(=O)Nc3c(C)cccc3C)c1CC2 ?
*A* 108 ng/mL

====

- assay.protocol: First PK study: single oral dose, two formulations
- Assay type: in vivo, female Swiss Albino mice
- test.settings: female, Swiss Albino, mouse, plasma, po, 10 mg/kg, single oral 10 mg/kg, Formulation 1, female mice, AUC0-24 h
property.measured: AUC(0-t)

*Q* Would you mind telling me what AUC(0-t) value was observed for COc1cc(N2CCNCC2)ccc1Nc1ncc2c(n1)-n1ccc(C(=O)Nc3c(C)cccc3C)c1CC2 [compound of formula (I)] ?
*A* 2430 ng·h/mL

====

- assay.protocol: First PK study: single oral dose, two formulations
- Assay type: in vivo, female Swiss Albino mice
- test.settings: female, Swiss Albino, mouse, plasma; single oral administration, 5-10 mg/kg, both formulations; read-out: median Tmax
property.measured: Tmax
Number plus unit, in that order.

*Q* Would you mind telling me what Tmax value was observed for COc1cc(N2CCNCC2)ccc1Nc1ncc2c(n1)-n1ccc(C(=O)Nc3c(C)cccc3C)c1CC2 ?
*A* 4 h

====

- assay.protocol: Second PK study: daily oral dose for 5 days, two formulations
- Assay type: in vivo, female Swiss Albino mice
- test.settings: female, Swiss Albino, mouse, plasma, po, 7.5 mg/kg, day 5, daily oral 7.5 mg/kg, Formulation 1, female mice
property.measured: AUC(0-inf) (ng·h/mL)
Numbers only, in ng·h/mL.

*Q* Would you mind telling me what AUC(0-inf) value was observed for COc1cc(N2CCNCC2)ccc1Nc1ncc2c(n1)-n1ccc(C(=O)Nc3c(C)cccc3C)c1CC2 ?
*A* 375

====

- assay.protocol: Second PK study: daily oral dose for 5 days, two formulations
- Format: in vivo, female Swiss Albino mice
- test.settings: female, Swiss Albino, mouse, plasma, po, 10 mg/kg, day 5, daily oral 10 mg/kg, Formulation 2, female mice; read-out: Apparent T1/2 (converted)
property.measured: half-life (h)
Numbers only, in h.

*Q* Would you mind telling me what half-life value was observed for COc1cc(N2CCNCC2)ccc1Nc1ncc2c(n1)-n1ccc(C(=O)Nc3c(C)cccc3C)c1CC2 [compound of formula (I)] ?
*A* 7.66

====

- assay.protocol: Second PK study: daily oral dose for 5 days, two formulations
- Assay type: in vivo, female Swiss Albino mice
- test.settings: female, Swiss Albino, mouse, plasma, po, 7.5 mg/kg, day 5, daily oral 7.5 mg/kg, Formulation 1, female mice, based on iv exposure; read-out: F (%)
property.measured: bioavailability (%)
One number for each entry, in %.

*Q* Would you mind telling me what bioavailability value was observed for COc1cc(N2CCNCC2)ccc1Nc1ncc2c(n1)-n1ccc(C(=O)Nc3c(C)cccc3C)c1CC2 ?
*A* 18

====

- assay.protocol: First PK study: single oral dose, two formulations
- Type: in vivo, female Swiss Albino mice
- test.settings: female, Swiss Albino, mouse, plasma, po, 10 mg/kg, single oral 10 mg/kg, Formulation 2, female mice, based on i.v. exposure; read-out: F (%)
property.measured: bioavailability (%)
Numbers only, in %.

*Q* Would you mind telling me what bioavailability value was observed for COc1cc(N2CCNCC2)ccc1Nc1ncc2c(n1)-n1ccc(C(=O)Nc3c(C)cccc3C)c1CC2 ?
*A* 96

====

- assay.protocol: First PK study: single oral dose, two formulations
- Type: in vivo, female Swiss Albino mice
- test.settings: female, Swiss Albino, mouse, plasma, po, 7.5 mg/kg, single oral 7.5 mg/kg, Formulation 1, female mice, based on i.v. exposure; read-out: F (%)
- Protocol: Plasma samples were collected on day 1 for Groups 1 to 6. Formulation 1 consisted of DMSO, cremophor EL, and 5% mannitol in water (10/10/80; v/v/v). Formulation 2 consisted of ethanol, PEG 400, and citric acid 20 mM (10/10/80; v/v/v). […] In each of the three studies blood was collected via the sephanous vein into K2-EDTA tubes kept on ice until centrifugation at 4° C. Plasma was stored at ap-proximately-80° C. […] PK parameters were calculated using Phoenix® WinNonLin 6.4. […]
property.measured: bioavailability (%)
Answers are plain numbers, in %.

*Q* Would you mind telling me what bioavailability value was observed for COc1cc(N2CCNCC2)ccc1Nc1ncc2c(n1)-n1ccc(C(=O)Nc3c(C)cccc3C)c1CC2 ?
*A* 77

====

- assay.protocol: Second PK study: daily oral dose for 5 days, two formulations
- Type: in vivo, female Swiss Albino mice
- test.settings: female, Swiss Albino, mouse, plasma, po, 7.5 mg/kg, day 5, daily oral 7.5 mg/kg, Formulation 1, female mice; read-out: Apparent T1/2 (converted)
property.measured: half-life (h)
One number for each entry, in h.

*Q* Would you mind telling me what half-life value was observed for COc1cc(N2CCNCC2)ccc1Nc1ncc2c(n1)-n1ccc(C(=O)Nc3c(C)cccc3C)c1CC2 [compound of formula (I)] ?
*A* 5.31

====

- assay.protocol: Second PK study: daily oral dose for 5 days, two formulations
- Format: in vivo, female Swiss Albino mice
- test.settings: Swiss Albino, mouse, plasma; day 5, daily oral 7.5 mg/kg, Formulation 1, female mice; read-out: Tmax
property.measured: Tmax
Number plus unit, in that order.

*Q* Would you mind telling me what Tmax value was observed for COc1cc(N2CCNCC2)ccc1Nc1ncc2c(n1)-n1ccc(C(=O)Nc3c(C)cccc3C)c1CC2 ?
*A* 4 h

====

- assay.protocol: Second PK study: daily oral dose for 5 days, two formulations
- Format: in vivo, female Swiss Albino mice
- test.settings: female, Swiss Albino, mouse, plasma, po, 10 mg/kg, day 5, daily oral 10 mg/kg, Formulation 1, female mice; read-out: Apparent T1/2 (converted)
property.measured: half-life (h)
Give bare numbers, in h.

*Q* Would you mind telling me what half-life value was observed for COc1cc(N2CCNCC2)ccc1Nc1ncc2c(n1)-n1ccc(C(=O)Nc3c(C)cccc3C)c1CC2 ?
*A* 5.81

====

- assay.protocol: Third PK study: intravenous dose on day 1 or on day 6 after 5 days oral dosing
- Type: in vivo, female Swiss Albino mice
- test.settings: female, Swiss Albino, mouse, plasma, iv, 5 mg/kg, 5 mg/kg i.v., both groups; read-out: plasma clearance
property.measured: clearance

*Q* Would you mind telling me what clearance value was observed for COc1cc(N2CCNCC2)ccc1Nc1ncc2c(n1)-n1ccc(C(=O)Nc3c(C)cccc3C)c1CC2 ?
*A* 55.4 to 57.9 mL/min/kg

====

- assay.protocol: First PK study: single oral dose, two formulations
- Type: in vivo, female Swiss Albino mice
- test.settings: female, Swiss Albino, mouse, plasma, po, 5 mg/kg, single oral 5 mg/kg, Formulation 2, female mice; read-out: Apparent T1/2 (converted)
property.measured: half-life (h)
Numbers only, in h.

*Q* Would you mind telling me what half-life value was observed for COc1cc(N2CCNCC2)ccc1Nc1ncc2c(n1)-n1ccc(C(=O)Nc3c(C)cccc3C)c1CC2 ?
*A* 3.29

====

- assay.protocol: First PK study: single oral dose, two formulations
- Format: in vivo, female Swiss Albino mice
- test.settings: female, Swiss Albino, mouse, plasma, po, 5 mg/kg, single oral 5 mg/kg, Formulation 1, female mice
property.measured: AUC(0-inf)
Number plus unit, in that order.

*Q* Would you mind telling me what AUC(0-inf) value was observed for COc1cc(N2CCNCC2)ccc1Nc1ncc2c(n1)-n1ccc(C(=O)Nc3c(C)cccc3C)c1CC2 ?
*A* 1100 ng·h/mL
